The next entries give measured Ki for KDR (Homo sapiens, UniProt P35968).

Check out these entries, answers already filled in.
Request: Can you look up Ki on KDR (Homo sapiens, UniProt P35968) for C[C@@H](O)Cn1cc(Nc2ncc(Cl)c(N[C@H]3[C@@H](C(N)=O)[C@@H]4C=C[C@H]3C4)n2)cn1 ?
Result: < 100 nM

Request: Which Ki is reported with KDR (Homo sapiens, UniProt P35968) for this entry: CC(C)n1cc(Nc2ncc(Br)c(N[C@H]3[C@@H](C(N)=O)[C@@H]4C=C[C@H]3C4)n2)cn1 ?
Result: < 100 nM

Request: Hi! What's the reported Ki for Cc1c(Nc2ncc(Br)c(N[C@H]3[C@@H](C(N)=O)C[C@H]4C[C@@H]3C4(C)C)n2)cnn1C on KDR (Homo sapiens, UniProt P35968)?
Result: < 100 nM

Request: KDR (Homo sapiens, UniProt P35968) / Ki / Cn1cc(Nc2ncc(Cl)c(N[C@@H]3CCCC[C@@H]3C(N)=O)n2)cn1.Cn1cc(Nc2ncc(Cl)c(N[C@H]3CCCC[C@H]3C(N)=O)n2)cn1 (mixture of isomers) : value?
Result: < 100 nM

Request: Give KDR (Homo sapiens, UniProt P35968) Ki for Cn1cc(Nc2ncc(F)c(N[C@@H]3C[C@H]4CC[C@@H]3C4)n2)cn1.Cn1cc(Nc2ncc(F)c(N[C@H]3C[C@@H]4CC[C@H]3C4)n2)cn1 (mixture of isomers)
Result: 1000 to 5000 nM

Request: What Ki appears in the records for this compound with KDR (Homo sapiens, UniProt P35968)? CNC(=O)[C@@H]1[C@H](Nc2nc(Nc3cnn(C)c3)ncc2C(F)(F)F)[C@H]2C=C[C@@H]1C2.CNC(=O)[C@H]1[C@@H](Nc2nc(Nc3cnn(C)c3)ncc2C(F)(F)F)[C@@H]2C=C[C@H]1C2 (mixture of isomers)
Sequence (P35968 789-1354): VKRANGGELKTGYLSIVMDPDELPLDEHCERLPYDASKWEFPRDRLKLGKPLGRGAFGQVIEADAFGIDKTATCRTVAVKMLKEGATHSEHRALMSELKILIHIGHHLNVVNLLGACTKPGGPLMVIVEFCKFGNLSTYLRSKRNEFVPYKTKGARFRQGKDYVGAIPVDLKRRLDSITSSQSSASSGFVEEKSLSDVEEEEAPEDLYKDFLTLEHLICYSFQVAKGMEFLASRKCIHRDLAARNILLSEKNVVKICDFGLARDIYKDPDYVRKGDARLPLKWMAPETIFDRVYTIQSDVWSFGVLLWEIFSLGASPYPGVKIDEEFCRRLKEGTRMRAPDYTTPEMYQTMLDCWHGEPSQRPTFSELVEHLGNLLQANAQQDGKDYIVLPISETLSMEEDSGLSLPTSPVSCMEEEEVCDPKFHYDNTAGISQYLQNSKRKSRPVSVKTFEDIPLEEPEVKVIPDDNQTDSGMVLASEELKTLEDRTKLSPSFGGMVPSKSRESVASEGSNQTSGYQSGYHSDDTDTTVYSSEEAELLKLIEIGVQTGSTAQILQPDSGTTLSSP
Result: < 100 nM

Request: Which measured Ki belongs to NC(=O)[C@@H]1[C@H](Nc2nc(Nc3cnn(CC(F)(F)F)c3)ncc2C(F)(F)F)[C@H]2C=C[C@@H]1C2 , tested on KDR (Homo sapiens, UniProt P35968)?
Result: < 100 nM

Request: Entry CNC(=O)[C@@H]1[C@H](Nc2nc(Nc3cnn(C)c3)ncc2Cl)[C@H]2C=C[C@@H]1C2 (racemic) , system KDR (Homo sapiens, UniProt P35968): what Ki was measured?
Result: < 100 nM

***
Request: Field: Ki (KDR (Homo sapiens, UniProt P35968)). Entry: NC(=O)Cn1cc(Nc2ncc(Br)c(N[C@H]3[C@@H](C(N)=O)[C@@H]4C=C[C@H]3C4)n2)cn1
Result: < 100 nM
